Target: T1, human IFNAR1, full length (IFNAR1-aa1-557) (human, UniProt P17181 28-557)
T1 construct: whole, on cells; Overexpressed on HEK293T cells from pIRES2-EGFP-IFNAR1; also used here for the human IFNAR1 of the IFN-I reporter cells and the cells of the virus assays; also called IFNAR1-WT; wild type IFNAR1
T1 sequence (looked up): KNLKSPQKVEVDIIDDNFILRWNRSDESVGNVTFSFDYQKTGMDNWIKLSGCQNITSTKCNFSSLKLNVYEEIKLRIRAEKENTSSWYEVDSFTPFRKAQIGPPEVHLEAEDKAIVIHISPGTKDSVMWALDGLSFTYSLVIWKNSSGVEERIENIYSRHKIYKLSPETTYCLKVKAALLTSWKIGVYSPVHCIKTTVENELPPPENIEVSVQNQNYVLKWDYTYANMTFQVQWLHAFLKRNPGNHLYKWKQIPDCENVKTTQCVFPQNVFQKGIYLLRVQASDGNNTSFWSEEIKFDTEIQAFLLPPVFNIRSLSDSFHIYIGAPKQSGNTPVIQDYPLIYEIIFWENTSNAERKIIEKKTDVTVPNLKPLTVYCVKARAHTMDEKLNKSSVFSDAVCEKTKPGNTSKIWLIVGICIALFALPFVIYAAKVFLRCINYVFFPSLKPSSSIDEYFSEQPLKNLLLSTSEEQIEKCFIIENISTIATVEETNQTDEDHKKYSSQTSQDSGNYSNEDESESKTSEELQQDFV
Test: flow cytometry on cells expressing human IFNAR1, MFI of PE
Let's look at some binders and their measured EC50 (read off the curve).

Check out these entries, answers already filled in.
binder	EC50 (read off the curve)
Hu4-6-mut-1 (antibody, V domains shown, Hu4-6 with A108G in VH (HCDR3)) VH: QVQLVQSGAEVKKPGASVKVSCKASGYTFTSYWMNWVRQAPGQGLEWMGKIDPSDSETHFNQKFRDRVTLTVDKSTSTVYMELSSLRSEDTAVYYCARGGRISFDYDGALDYWGQGTLVTVSS VL: DIQMTQSPSSLSASVGDRVTITCKSSEVIYNRLAWYQQKPGKAPKLLIYGATTLESGVPSRFSGSGSGKDYTLTISSLQPEDFATYYCQQYWNKPFTFGQGTKLEIK	~0.07 µg/mL
Hu4-6-mut-2 (antibody, V domains shown, Hu4-6 with T53S and S56T in VL (LCDR2)) VH: QVQLVQSGAEVKKPGASVKVSCKASGYTFTSYWMNWVRQAPGQGLEWMGKIDPSDSETHFNQKFRDRVTLTVDKSTSTVYMELSSLRSEDTAVYYCARGGRISFDYDAALDYWGQGTLVTVSS VL: DIQMTQSPSSLSASVGDRVTITCKSSEVIYNRLAWYQQKPGKAPKLLIYGATSLETGVPSRFSGSGSGKDYTLTISSLQPEDFATYYCQQYWNKPFTFGQGTKLEIK	~0.06 µg/mL
Hu4-6 (antibody, V domains shown, Humanized 7G4 variant) VH: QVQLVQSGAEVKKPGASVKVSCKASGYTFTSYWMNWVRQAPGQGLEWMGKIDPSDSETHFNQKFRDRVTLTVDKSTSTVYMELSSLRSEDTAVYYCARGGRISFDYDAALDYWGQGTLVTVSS VL: DIQMTQSPSSLSASVGDRVTITCKSSEVIYNRLAWYQQKPGKAPKLLIYGATTLESGVPSRFSGSGSGKDYTLTISSLQPEDFATYYCQQYWNKPFTFGQGTKLEIK	~0.06 µg/mL

Continue with the next binder.
Determine from records and report EC50 (read off the curve) for Hu4-6-mut-3 (antibody, V domains shown, Hu4-6 with A108G in VH and T53S and S56T in VL) VH: QVQLVQSGAEVKKPGASVKVSCKASGYTFTSYWMNWVRQAPGQGLEWMGKIDPSDSETHFNQKFRDRVTLTVDKSTSTVYMELSSLRSEDTAVYYCARGGRISFDYDGALDYWGQGTLVTVSS VL: DIQMTQSPSSLSASVGDRVTITCKSSEVIYNRLAWYQQKPGKAPKLLIYGATSLETGVPSRFSGSGSGKDYTLTISSLQPEDFATYYCQQYWNKPFTFGQGTKLEIK
~0.06 µg/mL
